biological target: Aurora kinase B (Homo sapiens, UniProt Q96GD4)
Sequence (Q96GD4 whole entry): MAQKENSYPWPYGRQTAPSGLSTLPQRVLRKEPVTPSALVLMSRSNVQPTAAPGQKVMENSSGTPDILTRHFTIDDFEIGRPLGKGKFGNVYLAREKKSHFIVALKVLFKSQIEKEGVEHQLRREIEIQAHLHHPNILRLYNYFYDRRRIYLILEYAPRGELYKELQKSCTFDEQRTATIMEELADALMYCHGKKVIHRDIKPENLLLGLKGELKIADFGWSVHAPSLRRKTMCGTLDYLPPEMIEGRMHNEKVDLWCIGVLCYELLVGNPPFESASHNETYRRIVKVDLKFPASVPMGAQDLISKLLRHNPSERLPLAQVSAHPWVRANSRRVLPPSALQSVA
Reported property: IC50 (nM)
Lab book: enter the figure in nM, no units written.

Form: item CC1(C)CC(NC(=O)c2cccc(-c3cc4nccc(Nc5cccc(O)c5)n4n3)c2)CC(C)(C)N1[O] ; test system Aurora kinase B (Homo sapiens, UniProt Q96GD4); IC50: 2900

====

molecular target: Cyclin-dependent kinase 2/cyclin A (Homo sapiens, UniProt P24941); assay: Inhibition of CDK2/Cyclin A
Reported property: IC50

Input CC1(C)CC(NC(=O)c2cccc(-c3cc4nccc(Nc5cccc(O)c5)n4n3)c2)CC(C)(C)N1[O] . Output IC50: > 50 µM

====

biological target: Mitogen-activated protein kinase 1 (Homo sapiens, UniProt P28482); assay: Inhibition of ERK2
Sequence (P28482 whole entry): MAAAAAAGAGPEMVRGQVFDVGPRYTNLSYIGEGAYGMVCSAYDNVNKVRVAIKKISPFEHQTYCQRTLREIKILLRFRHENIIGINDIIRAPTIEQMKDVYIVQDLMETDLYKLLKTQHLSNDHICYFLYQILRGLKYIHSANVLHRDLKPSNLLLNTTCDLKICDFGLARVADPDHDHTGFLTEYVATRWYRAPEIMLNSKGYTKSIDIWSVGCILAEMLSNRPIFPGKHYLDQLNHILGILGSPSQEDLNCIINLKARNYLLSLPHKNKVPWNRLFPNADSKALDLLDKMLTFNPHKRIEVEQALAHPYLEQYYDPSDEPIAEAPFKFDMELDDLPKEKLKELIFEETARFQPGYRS
pIC50: −log10 of the molar value.
Reported property: pIC50

Input CC1(C)CC(NC(=O)c2cccc(-c3cc4nccc(Nc5cccc(O)c5)n4n3)c2)CC(C)(C)N1[O] . Output pIC50: < 4.30

====

target: Proto-oncogene tyrosine-protein kinase Src (Homo sapiens, UniProt P12931); experiment: Inhibition of src kinase by functional activity assay of the Src kinase domain
Sequence (P12931 2-536 limits assumed): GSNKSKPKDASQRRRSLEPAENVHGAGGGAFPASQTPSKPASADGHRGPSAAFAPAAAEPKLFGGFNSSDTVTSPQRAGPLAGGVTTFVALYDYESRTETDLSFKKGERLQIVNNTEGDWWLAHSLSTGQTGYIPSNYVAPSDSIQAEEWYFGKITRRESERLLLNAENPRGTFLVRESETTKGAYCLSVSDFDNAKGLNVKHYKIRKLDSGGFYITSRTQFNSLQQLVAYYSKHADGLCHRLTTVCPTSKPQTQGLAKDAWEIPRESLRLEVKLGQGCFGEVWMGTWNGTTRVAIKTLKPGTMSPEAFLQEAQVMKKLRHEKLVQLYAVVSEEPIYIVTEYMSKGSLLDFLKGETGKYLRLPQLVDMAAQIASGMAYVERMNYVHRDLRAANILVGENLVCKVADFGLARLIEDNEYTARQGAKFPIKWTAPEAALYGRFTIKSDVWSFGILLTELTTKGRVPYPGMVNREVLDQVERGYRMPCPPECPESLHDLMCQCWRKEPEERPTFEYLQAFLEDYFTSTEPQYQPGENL
Reported property: IC50 (µM)
Lab book: enter the figure in µM, no units written.

Input O=C(Cc1ccc(-c2ccc(OCCN3CCOCC3)cc2)cn1)NCc1ccccc1 . Output IC50: 40
